%Inh reference
Test system: BMPR1A
Conditions: concentration: 1 μM, replicates: in singlicate; n = 1;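 further: KINOMEscan kinase panel screen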
Please give a number only; it is taken to be in %.

>>> recorded_measurement("CC(=O)Nc1ccc(COc2ccc(Nc3ccnc4cc(-c5ccccn5)ccc34)cc2)cc1.Cl [GW440148]")
0
>>> recorded_measurement("O=c1cc(N2CCOCC2)nc2n(Cc3cccc(C(F)(F)F)c3)ccn12 [GSK2297543]")
0
>>> recorded_measurement("CCc1ccnc(/C=C/c2n[nH]c3cc(Sc4ccccc4C(=O)NC)ccc23)c1")
0
>>> recorded_measurement("Cc1nnc(-c2ccc3occ(-c4ccc(C(C)O)cc4)c3c2)o1 (stereo not shown)")
2
>>> recorded_measurement("Cc1c2ccc(N(C)c3ccnc(Nc4cccc(S(N)(=O)=O)c4)n3)cc2nn1Cc1ccccc1.Cl.Cl [GW787226]")
3
>>> recorded_measurement("O=C(NOCC1CC1)c1ccc(F)c(F)c1Nc1ccc(I)cc1Cl")
0
>>> recorded_measurement("Cc1nnc(-c2ccc3ncc(-c4ccc(S(C)=O)cc4)n3c2)o1 (stereo not shown)")
9
>>> recorded_measurement("CN1c2ccc(NCc3ccc(F)cc3)cc2-c2c(cnn2C)S1(=O)=O")
0
>>> recorded_measurement("Cl.Nc1ncnc2occ(-c3ccc(NC(=O)Nc4cc(C(F)(F)F)ccc4F)cc3)c12 [SB-707548]")
0
>>> recorded_measurement("COc1ccc(COc2cc(-n3cnc4ccccc43)sc2C(N)=O)cc1 [GSK1024304]")
0

In the following, a different molecule is considered.
%Inh for O=c1cc(N2CCOCC2)nc2n(Cc3cccc4ccccc34)ccn12 [GSK2333389] ?
0

====

Measured %Inh, listed per entry.
Test system: EIF2AK1
Details: concentration: 1 μM, replicates: in singlicate; n = 1
Give the number; % is assumed, so skip it.

I'd like to know its %Inh. The compound in question is c1ccc(-c2n[nH]cc2-c2ccnc3ccccc23)nc1
14

Give the measured %Inh of N#Cc1ccc(-c2cc(-c3c[nH]nc3-c3ccccn3)ccn2)cc1 .
6

Which %Inh is reported for this compound? Cl.Nc1ncnc2occ(-c3ccc(NC(=O)Nc4cc(C(F)(F)F)ccc4F)cc3)c12
0

====

Test system: NEK4
Conditions: concentration: 1 μM, replicates: in singlicate; n = 1
VALUE TYPE: %Inh
Answer format reminder: number followed by unit.

Some entries whose results are on file:
>>> recorded_measurement("O=C(Nc1n[nH]c2cc(-c3cccc(F)c3)ccc12)C1CC1")
"14%"
>>> recorded_measurement("Cn1ccc2ncnc(Oc3ccc(NC(=O)Nc4ccncc4)c(Cl)c3)c21")
"0%"
>>> recorded_measurement("Cc1nnc(-c2ccc3occ(-c4ccc(C(C)O)cc4)c3c2)o1 (stereo not drawn)")
"0%"
>>> recorded_measurement("NS(=O)(=O)CCc1cccc(Nc2nccc(-c3c(-c4cccc(NC(=O)c5c(F)cccc5F)c4)nn4ccccc34)n2)c1")
"19%"
>>> recorded_measurement("Fc1ccc(-c2nn3c(OCC(F)(F)F)cccc3c2-c2ccncc2)cc1")
"0%"

Then there is this compound:
Item COC(=O)Nc1nc2cc(Oc3ccc(NC(=O)Nc4cc(F)ccc4F)cc3)ccc2[nH]1.Cl has what recorded %Inh?
0%

====

Test system: GCN2(Kin.Dom.2,S808G)
Construct: gene EIF2AK4
Settings: concentration: 1 μM, replicates: in singlicate; n = 1
Overview of reported %Inh across a group of compounds:
Write the answer as a number in %, unit excluded.

>>> recorded_measurement("Cc1nnc(-c2ccc3ncc(-c4ccc(S(C)=O)cc4)n3c2)o1 (stereo not drawn)")
0
>>> recorded_measurement("c1ccc(-c2cc(-c3c[nH]nc3-c3ccccn3)ccn2)cc1")
1
>>> recorded_measurement("O=C1Cc2cc(Nc3nc(NCc4cccc(S(=O)(=O)C(F)(F)F)c4)ncc3C(F)(F)F)ccc2N1")
28
>>> recorded_measurement("CN1c2ccc(NCc3ccc(F)cc3)cc2-c2c(cnn2C)S1(=O)=O")
0
>>> recorded_measurement("CCCCCc1nc2c(N)ncnc2n1CCCCC")
4
>>> recorded_measurement("COc1ccc(Nc2ncc(C#N)c(Nc3ccccc3C(N)=O)n2)cc1N1CCN(C)CC1.Cl")
100
>>> recorded_measurement("COc1ccc(COc2cc(-n3cnc4ccccc43)sc2C(N)=O)cc1")
0
>>> recorded_measurement("COCCNC(=O)c1ccc(-c2cc(C(=O)NC3CC3)cc(F)c2C)cc1")
12

Dear colleague, I am looking for the recorded %Inh of the following compound: NS(=O)(=O)c1cccc(-c2ccc3ncc(N4CCOCC4)nc3c2)c1
0
